Molecular target: Human Factor XIIa (Homo sapiens, UniProt P00748)
Construct: purchased Enzyme Research Laboratories
Sequence (P00748 373-615 limits assumed): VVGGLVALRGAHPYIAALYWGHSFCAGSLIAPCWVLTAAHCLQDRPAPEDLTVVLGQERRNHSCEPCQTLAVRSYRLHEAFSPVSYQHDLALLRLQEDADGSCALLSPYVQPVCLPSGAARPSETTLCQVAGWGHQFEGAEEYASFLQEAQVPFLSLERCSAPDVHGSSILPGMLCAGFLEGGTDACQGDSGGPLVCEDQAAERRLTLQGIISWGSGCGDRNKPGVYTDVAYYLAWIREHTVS
Experiment: Factor XIIa inhibitory activity in vitro (fluorogenic substrate H-DPro-Phe-Arg-AFC)
Type: biochemical
Conditions: 25° C., class symbols, read-out: Human FXIIa IC50
ENDPOINT_NAME: IC50

Completed entries (count: 5):
* CC1(C)CCCN1CC(=O)N[C@@H](Cc1ccc(F)c(F)c1)C(=O)NCc1ccc2c(N)nccc2c1 [Example 3.18] | 0.28 to 1 µM
* C[C@@H]1CCC[C@H](C)N1CC(=O)N[C@@H](Cc1ccccc1)C(=O)NCc1ccc2c(N)nccc2c1 [Example 3.11] | 0.1 to 0.279 µM
* Nc1nccc2cc(CNC(=O)[C@H](Cc3ccc(F)c(F)c3)NC(=O)c3cc(CO)ccn3)ccc12 [Example 0.59] | 3 to 10 µM
* C[C@@H]1CCC[C@H](C)N1CC(=O)N[C@@H](Cc1ccc(F)c(F)c1)C(=O)NCc1cccc2[nH]ccc12 [Example 34.03] | 3 to 10 µM
* Cc1cc2ncc(C(=O)N[C@@H](Cc3ccc(F)c(F)c3)C(=O)NCc3ccc4c(N)nccc4c3)c(C)n2n1 [Example 0.36] | 3 to 10 µM

Problem: Tell me its IC50 given CS(=O)(=O)N[C@@H](Cc1ccc(F)c(F)c1)C(=O)NCc1ccc2c(N)nccc2c1 [Example 55.02] as the entry.
Solution: 10 to 40 µM

Problem: Please report the measured IC50 for CCCCOCC(=O)N[C@@H](Cc1ccc(F)c(F)c1)C(=O)NCc1ccc2c(N)nccc2c1 [Example 3.30]
Solution: 10 to 40 µM

---

Target: Human Factor XIIa (Homo sapiens, UniProt P00748)
Construct: purchased Enzyme Research Laboratories
Experiment: Factor XIIa inhibitory activity in vitro (fluorogenic substrate H-DPro-Phe-Arg-AFC)
Type: biochemical
Conditions: 25° C., class symbols, read-out: Human FXIIa IC50
ENDPOINT_NAME: IC50

Problem: # return IC50 for "C[C@H](NC(=O)[C@@H]1NCc2ccccc21)C(=O)NCc1ccc2c(N)nccc2c1" , test system: Human Factor XIIa (Homo sapiens, UniProt P00748)
Solution: 10 to 40 µM

Problem: Report its IC50 with Human Factor XIIa (Homo sapiens, UniProt P00748) as the test system: "C[C@@H]1CCC[C@H](C)N1CC(=O)N[C@@H](Cc1ccc(F)c(F)c1)C(=O)NCc1ccc2c(cnn2C)c1"
Solution: 10 to 40 µM

Problem: Answer with IC50 of "CC(C)N1CCC[C@@H]1C(=O)N[C@@H](Cc1ccc(F)c(F)c1)C(=O)NCc1ccc2c(cnn2C)c1" measured for Human Factor XIIa (Homo sapiens, UniProt P00748).
Solution: 10 to 40 µM

Problem: // fetch IC50 for "CCCS(=O)(=O)N[C@@H](Cc1ccc(F)c(F)c1)C(=O)NCc1ccc2c(N)nccc2c1" ; system: Human Factor XIIa (Homo sapiens, UniProt P00748)
Solution: 10 to 40 µM

Problem: Quote IC50 with test system Human Factor XIIa (Homo sapiens, UniProt P00748) for "CS(=O)(=O)c1cccc(CC(=O)N[C@@H](Cc2ccc(F)c(F)c2)C(=O)NCc2ccc3c(N)nccc3c2)c1"
Solution: 3 to 10 µM

Problem: Return reported IC50 for target or system Human Factor XIIa (Homo sapiens, UniProt P00748), item "Nc1nccc2cc(CNC(=O)CNC(=O)c3ccc4ccccc4n3)ccc12" .
Solution: 10 to 40 µM

Problem: Retrieve IC50 on Human Factor XIIa (Homo sapiens, UniProt P00748); query "Nc1nccc2cc(CNC(=O)[C@H](Cc3ccc(F)c(F)c3)NC(=O)CCc3[nH]nc4c3CCCC4)ccc12"
Solution: 10 to 40 µM

Problem: Lab note: Human Factor XIIa (Homo sapiens, UniProt P00748) assay, enter IC50 for CCC(C)[C@H](C(=O)NCC(=O)NCc1ccc2c(N)nccc2c1)N(C)C (stereo partly drawn) here
Solution: 10 to 40 µM

Problem: State IC50 (Human Factor XIIa (Homo sapiens, UniProt P00748)) of "C[C@@H]1CCC[C@H](C)N1CC(=O)N[C@@H](Cc1ccc(F)c(F)c1)C(=O)NCc1ccc2[nH]ccc2c1" .
Solution: 10 to 40 µM

Problem: // fetch IC50 for CC1CCCC(C)N1CC(=O)N[C@@H](Cc1ccc(F)c(F)c1)C(=O)NCc1ccnc(N)c1 (stereo partly drawn) ; system: Human Factor XIIa (Homo sapiens, UniProt P00748)
Solution: 10 to 40 µM

---

pIC50 listing for selected compounds.
Target: Human Factor XIIa (Homo sapiens, UniProt P00748)
Construct: purchased Enzyme Research Laboratories
Assay: Factor XIIa inhibitory activity in vitro (fluorogenic substrate H-DPro-Phe-Arg-AFC)
Format: biochemical
Settings: 25° C., class symbols, read-out: Human FXIIa IC50
pIC50: −log10 of the molar value.

Problem: // fetch pIC50; item: Nc1nccc2cc(CNC(=O)[C@H](Cc3ccc(F)c(F)c3)NC(=O)c3ccc(F)c(F)c3)ccc12 [Example 0.49] ; system: Human Factor XIIa (Homo sapiens, UniProt P00748)
Solution: 4.40 to 5.00

Problem: Write down the reported pIC50 (system: Human Factor XIIa (Homo sapiens, UniProt P00748)) of C[C@H](NC(=O)[C@@H](CCc1ccccc1)NC1CCOCC1)C(=O)NCc1ccc2[nH]cc(Cl)c2c1 [Example 9.17]
Solution: 5.00 to 5.52

Problem: // fetch pIC50; item: CC[C@H](NC(=O)[C@@H](CCc1ccccc1)NC(=O)OC(C)(C)C)C(=O)NCc1ccc2c(N)nccc2c1 [Example 6.04] ; system: Human Factor XIIa (Homo sapiens, UniProt P00748)
Solution: 4.40 to 5.00

Problem: Lab note: Human Factor XIIa (Homo sapiens, UniProt P00748) assay, enter pIC50 for C[C@@H]1CCC[C@H](C)N1CC(=O)N[C@@H](Cc1ccc(F)c(F)c1)C(=O)NCc1ccnc(N)c1 [Example 34.04] here
Solution: 4.40 to 5.00

---

Target: Human FXIa (Homo sapiens)
Construct: Human FXIa (Enzyme Research Laboratories) was incubated; purchased Enzyme Research Laboratories
Sequence (P03951 388-625 limits assumed): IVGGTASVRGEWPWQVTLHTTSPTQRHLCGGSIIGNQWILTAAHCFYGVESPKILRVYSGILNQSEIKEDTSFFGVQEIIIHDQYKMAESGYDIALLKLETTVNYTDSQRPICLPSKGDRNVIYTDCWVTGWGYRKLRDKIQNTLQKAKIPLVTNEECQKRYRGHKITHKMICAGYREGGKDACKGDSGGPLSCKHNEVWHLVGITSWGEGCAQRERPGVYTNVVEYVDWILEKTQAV
Sequence (P03951 19-387 partner limits assumed): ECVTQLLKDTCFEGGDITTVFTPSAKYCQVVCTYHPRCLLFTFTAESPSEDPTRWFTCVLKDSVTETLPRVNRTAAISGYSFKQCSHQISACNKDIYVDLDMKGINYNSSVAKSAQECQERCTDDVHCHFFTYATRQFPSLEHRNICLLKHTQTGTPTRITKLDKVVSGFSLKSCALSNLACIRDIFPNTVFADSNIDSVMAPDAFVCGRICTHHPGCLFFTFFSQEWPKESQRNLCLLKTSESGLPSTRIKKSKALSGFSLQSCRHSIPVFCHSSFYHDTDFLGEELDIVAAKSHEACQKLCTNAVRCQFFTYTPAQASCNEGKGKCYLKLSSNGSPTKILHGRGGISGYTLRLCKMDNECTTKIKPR
Assay: FXIa inhibitory activity in vitro (fluorogenic substrate Z-Gly-Pro-Arg-AFC), selectivity
Format: biochemical
Details: category scale, 25° C.
ENDPOINT_NAME: IC50

Example entries begin here.
- CC(C)c1cc(C(=O)N[C@@H](Cc2ccc(F)c(F)c2)C(=O)NCc2ccc3c(N)nccc3c2)cnn1 [Example 0.97]: > 40 µM
- CC(C)N[C@H](Cc1c[nH]c2ccccc12)C(=O)N1CC[C@H]1C(=O)NCc1ccc2[nH]cc(Cl)c2c1 [Example 10.18]: 10 to 40 µM
- Nc1nccc2cc(CNC(=O)[C@@H]3C[C@@H](c4ccccc4)CN3C(=O)[C@@H]3CCCN3)ccc12 [Example 43.06]: 10 to 40 µM
- Nc1nccc2cc(CNC(=O)CNC(=O)c3ccc4ccccc4n3)ccc12 [Example 18.107]: > 40 µM
- CC(C)N[C@H](CCCN1CCCCC1)C(=O)N[C@@H](Cc1ccc(F)c(F)c1)C(=O)NCc1ccc2c(N)nccc2c1 [Example 12.04]: 10 to 40 µM
- C[C@H](NC(=O)[C@H](N)COc1ccccc1)C(=O)NCc1ccc2c(N)nccc2c1 [Example 6.17]: 10 to 40 µM

Problem: Answer with the recorded IC50 for the molecule listed here: CN[C@H](CCc1ccccc1)C(=O)N1CC[C@H]1C(=O)NCc1ccc2c(N)nccc2c1 [Example 17.08]
Solution: > 40 µM

Problem: Supply measured IC50 of N[C@H](CCCCN1Cc2ccccc2C1)C(=O)N1CC[C@H]1C(=O)NCc1ccc2[nH]cc(Cl)c2c1 [Example 10.10] in your reply.
Solution: > 40 µM

Problem: Output measured IC50 for this item: N[C@H](CCCCN1CCC(F)(F)C1)C(=O)N1CC[C@H]1C(=O)NCc1cnc2[nH]cc(Cl)c2c1 [Example 10.04]
Solution: > 40 µM

Problem: Consider the molecule CC(C)N[C@H](CCc1ccccc1)C(=O)N1CCC[C@H]1C(=O)NCc1cnc2[nH]cc(Cl)c2c1 [Example 27.01] and give its recorded IC50.
Solution: > 40 µM

Problem: Report IC50 for CN[C@H](CCc1ccccc1)C(=O)N[C@@H](C)C(=O)NCc1ccc2c(N)nccc2c1 [Example 6.10]
Solution: 10 to 40 µM

Problem: Find the measured IC50 of C[C@H](NC(=O)[C@H](N)CCc1ccccc1)C(=O)N[C@@H]1CCc2c1ccnc2N [Example 9.02] and report it.
Solution: > 40 µM

Problem: Supply measured IC50 of C[C@@H]1CCC[C@H](C)N1CC(=O)NC1(C(=O)NCc2ccc3c(N)nccc3c2)CCC1 [Example 39.10] in your reply.
Solution: 10 to 40 µM
